biological target: Lck (Homo sapiens); construct: Kinases are expressed as either kinase domains or full length constructs; made in house; assay: Kinase inhibition assay (33P transfer), Lck; type: biochemical; conditions: read-out: Lck-1
Sequence (P06239 whole entry, species assumed, the tested form may be a part): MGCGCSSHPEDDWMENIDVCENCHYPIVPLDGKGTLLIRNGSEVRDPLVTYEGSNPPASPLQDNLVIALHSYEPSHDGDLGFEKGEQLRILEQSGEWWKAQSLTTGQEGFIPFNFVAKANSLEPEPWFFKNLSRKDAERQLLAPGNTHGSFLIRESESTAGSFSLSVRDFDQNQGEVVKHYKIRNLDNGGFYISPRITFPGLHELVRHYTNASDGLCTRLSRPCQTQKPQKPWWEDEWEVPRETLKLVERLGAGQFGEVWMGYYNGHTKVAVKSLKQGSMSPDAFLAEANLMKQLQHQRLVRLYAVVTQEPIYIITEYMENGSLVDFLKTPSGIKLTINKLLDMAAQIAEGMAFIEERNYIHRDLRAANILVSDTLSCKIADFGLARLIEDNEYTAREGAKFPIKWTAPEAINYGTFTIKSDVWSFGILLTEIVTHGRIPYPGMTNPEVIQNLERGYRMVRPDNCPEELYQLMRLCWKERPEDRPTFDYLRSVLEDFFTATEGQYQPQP
result_type: IC50

Use these answered entries as a reference point.
> print(dat)
                                   compound    endpoint.value
1  COc1cc(Nc2ncnc(-n3c(NCc4cccc(Br)c4)nc4ccccc43)n2)cc(OC)c1OC  0.711 to 4.27 µM
2  COc1cc(Nc2ncnc(-n3c(NC(CCO)c4ccccc4)nc4ccccc43)n2)cc(OC)c1OC (stereo not drawn)        < 0.758 µM
3  NC(=O)c1ccccc1Nc1ncnc(-n2c(N)nc3ccccc32)n1   6.93 to 10.1 µM
4  O=C(O)Cc1cccc(Nc2ncnc(Nc3cccc(Br)c3)n2)c1         > 11.2 µM
5  NC(=O)c1ccc(Nc2ncnc(-c3cccnc3NCc3cccs3)n2)cc1  0.991 to 5.95 µM

So what's the measured IC50 for this one? `CN(c1cccc(Cl)c1)c1ncnc(NCCOCCO)n1`
> 13.9 µM

Could you do the same for `N#Cc1cccc(Nc2ncnc(-n3c(=O)[nH]c4ccccc43)n2)c1` , please?
1.21 to 7.29 µM

For `COC(=O)Cc1cccc(Nc2ncnc(Nc3ccc(C)c(O)c3)n2)c1` then?
1.09 to 6.57 µM

---

target: AKT (Homo sapiens, UniProt Q9Y243); construct: Kinases are expressed as either kinase domains or full length constructs; made in house; experiment: Kinase inhibition assay (33P transfer), AKT; assay type: biochemical; details: Table 2, kinase inhibition class; read-out: AKT3-1
Sequence (Q9Y243 whole entry, the tested form may be a part): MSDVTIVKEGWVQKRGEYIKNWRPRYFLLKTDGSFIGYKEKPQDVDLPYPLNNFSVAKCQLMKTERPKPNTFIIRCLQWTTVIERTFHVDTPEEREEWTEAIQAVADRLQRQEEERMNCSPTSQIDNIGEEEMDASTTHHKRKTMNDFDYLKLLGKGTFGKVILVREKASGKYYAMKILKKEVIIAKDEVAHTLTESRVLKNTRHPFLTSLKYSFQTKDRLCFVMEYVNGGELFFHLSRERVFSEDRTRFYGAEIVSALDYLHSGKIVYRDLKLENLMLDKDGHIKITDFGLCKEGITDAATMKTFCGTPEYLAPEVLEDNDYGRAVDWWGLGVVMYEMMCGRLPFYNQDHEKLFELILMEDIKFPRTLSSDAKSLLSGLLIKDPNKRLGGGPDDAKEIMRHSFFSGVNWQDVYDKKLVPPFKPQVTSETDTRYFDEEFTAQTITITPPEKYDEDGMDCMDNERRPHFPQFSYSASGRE
pIC50: −log10 of the molar value.
pIC50: recorded values

Take a look at these entries with their results.
> print(dat)
                                   molecule  endpoint.value
1  COc1cc(Nc2ncnc(N3CCc4ccc([N+](=O)[O-])cc43)n2)cc(OC)c1OC [Compound 191]          < 4.97
2  COc1cc(Nc2ncnc(Nc3ccc(F)c(Cl)c3)n2)cc(OC)c1OC [Compound 61]          < 4.96

// pIC50 lookup, key: NC(=O)c1ccc(Nc2ncnc(-c3cccnc3NCc3cccs3)n2)cc1 [Compound 1083]
< 4.95

Repeat for the following molecule: COc1cc(Nc2ncnc(Nc3nc4ccccc4s3)n2)cc(OC)c1OC [Compound 469]
< 4.96

---

target: IGFR-1 (Homo sapiens); construct: Kinases are expressed as either kinase domains or full length constructs; made in house; experiment: Kinase inhibition assay, IGFR-1 (Table 2); format: biochemical; conditions: Table 2, kinase inhibition class
Sequence (P08069 31-1367): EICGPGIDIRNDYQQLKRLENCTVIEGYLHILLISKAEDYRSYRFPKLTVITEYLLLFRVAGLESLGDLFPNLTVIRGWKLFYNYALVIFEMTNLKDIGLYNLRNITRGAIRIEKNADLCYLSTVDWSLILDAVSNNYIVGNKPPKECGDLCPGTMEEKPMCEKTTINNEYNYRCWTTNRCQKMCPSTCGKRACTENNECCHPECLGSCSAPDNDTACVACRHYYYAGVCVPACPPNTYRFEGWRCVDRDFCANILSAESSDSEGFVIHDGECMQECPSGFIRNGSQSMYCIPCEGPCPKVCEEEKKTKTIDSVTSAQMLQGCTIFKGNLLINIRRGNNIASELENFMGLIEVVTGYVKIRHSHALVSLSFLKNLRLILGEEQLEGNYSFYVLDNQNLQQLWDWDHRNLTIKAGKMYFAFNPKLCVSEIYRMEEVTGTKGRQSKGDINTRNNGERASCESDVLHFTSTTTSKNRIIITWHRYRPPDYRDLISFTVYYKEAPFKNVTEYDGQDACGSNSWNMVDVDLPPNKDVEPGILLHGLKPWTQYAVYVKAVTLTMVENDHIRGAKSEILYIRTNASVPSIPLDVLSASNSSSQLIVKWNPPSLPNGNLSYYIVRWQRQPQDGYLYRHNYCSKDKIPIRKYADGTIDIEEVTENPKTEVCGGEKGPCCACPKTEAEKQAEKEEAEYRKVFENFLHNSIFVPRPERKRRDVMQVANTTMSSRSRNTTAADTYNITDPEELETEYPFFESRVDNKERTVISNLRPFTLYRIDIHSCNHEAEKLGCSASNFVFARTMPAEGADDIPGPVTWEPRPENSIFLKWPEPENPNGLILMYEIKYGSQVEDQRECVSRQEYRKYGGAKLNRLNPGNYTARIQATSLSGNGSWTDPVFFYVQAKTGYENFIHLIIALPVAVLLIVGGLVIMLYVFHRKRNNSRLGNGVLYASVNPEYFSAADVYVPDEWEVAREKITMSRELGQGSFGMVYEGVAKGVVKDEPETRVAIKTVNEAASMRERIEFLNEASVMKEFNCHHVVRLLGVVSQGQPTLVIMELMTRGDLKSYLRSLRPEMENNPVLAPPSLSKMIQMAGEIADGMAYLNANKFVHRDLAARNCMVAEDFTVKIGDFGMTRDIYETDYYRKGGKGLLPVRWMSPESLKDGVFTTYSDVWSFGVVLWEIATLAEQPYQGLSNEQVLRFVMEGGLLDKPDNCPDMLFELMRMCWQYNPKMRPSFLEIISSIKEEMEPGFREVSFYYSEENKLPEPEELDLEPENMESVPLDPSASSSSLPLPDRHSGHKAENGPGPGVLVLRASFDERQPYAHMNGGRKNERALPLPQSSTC
pIC50: −log10 of the molar value.
As shown below, each of these compounds has a reported pIC50 value.

Check out these entries, answers already filled in.
> print(dat)
                                   compound      system.under.test  endpoint.value
1      Nc1ncnc(Nc2ccc3c(cnn3Cc3ccccc3)c2)n1  IGFR-1 (Homo sapiens)          < 4.85
2  c1ccc(Cn2ncc3cc(Nc4ncnc(Nc5ncccn5)n4)ccc32)cc1  IGFR-1 (Homo sapiens)    5.22 to 6.00
3  Fc1ccc(Nc2ncnc(Nc3ccc4[nH]ncc4c3)n2)cc1Cl  IGFR-1 (Homo sapiens)    5.17 to 5.95
4  COc1cc(Nc2ncnc(-n3c(NCCc4ccccn4)nc4ccccc43)n2)cc(OC)c1OC  IGFR-1 (Homo sapiens)          < 5.04
5  COc1cc(Nc2ncnc(-c3c(O)[nH]c4ccc(Cl)cc34)n2)cc(OC)c1OC  IGFR-1 (Homo sapiens)    5.25 to 6.03

Look up pIC50 for this compound: `c1ccc(Cn2ncc3cc(Nc4ncnc(Nc5ccc(N6CCOCC6)cc5)n4)ccc32)cc1`
5.30 to 6.08

Also `c1ccc(Cn2ncc3cc(Nc4ncnc(NCc5ccco5)n4)ccc32)cc1` ?
5.22 to 6.00

Input `CN(c1cccc(Cl)c1)c1ncnc(Nc2cccc(Br)c2)n1`
< 4.94

How about this compound: `COc1ccc(Nc2ncnc(NCc3c(C)cccc3Cl)n2)cc1OC`
< 4.93

Try this compound next: `COc1ccc(CNc2nc3ccccc3n2-c2ncnc(Nc3cc(OC)c(OC)c(OC)c3)n2)cc1`
< 5.06

Also need `COc1cc(Nc2ncnc(-c3cccnc3Nc3cccc(C(N)=O)c3)n2)cc(OC)c1OC` , thanks.
5.02 to 5.13

Check `COc1cc(Nc2ncnc(-n3c(N[C@@H](CO)c4ccccc4)nc4ccccc43)n2)cc(OC)c1OC` too.
5.06 to 5.17

Request: `COc1cc(Nc2ncnc(-n3c(NCc4ccccn4)nc4ccccc43)n2)cc(OC)c1OCCN1CCOCC1`
5.39 to 6.16

Same read-out for `C=CCNc1nc2ccccc2n1-c1ncnc(Nc2cc(OC)c(OC)c(OC)c2)n1` ?
5.26 to 6.03

---

Catalogue of compounds with associated IC50
target: c-Met (Homo sapiens, UniProt P08581); construct: Kinases are expressed as either kinase domains or full length constructs; made in house; assay: Kinase inhibition assay (33P transfer), c-Met; assay type: biochemical; settings: Table 2, kinase inhibition class; read-out: Met-1
Sequence (P08581 25-1390): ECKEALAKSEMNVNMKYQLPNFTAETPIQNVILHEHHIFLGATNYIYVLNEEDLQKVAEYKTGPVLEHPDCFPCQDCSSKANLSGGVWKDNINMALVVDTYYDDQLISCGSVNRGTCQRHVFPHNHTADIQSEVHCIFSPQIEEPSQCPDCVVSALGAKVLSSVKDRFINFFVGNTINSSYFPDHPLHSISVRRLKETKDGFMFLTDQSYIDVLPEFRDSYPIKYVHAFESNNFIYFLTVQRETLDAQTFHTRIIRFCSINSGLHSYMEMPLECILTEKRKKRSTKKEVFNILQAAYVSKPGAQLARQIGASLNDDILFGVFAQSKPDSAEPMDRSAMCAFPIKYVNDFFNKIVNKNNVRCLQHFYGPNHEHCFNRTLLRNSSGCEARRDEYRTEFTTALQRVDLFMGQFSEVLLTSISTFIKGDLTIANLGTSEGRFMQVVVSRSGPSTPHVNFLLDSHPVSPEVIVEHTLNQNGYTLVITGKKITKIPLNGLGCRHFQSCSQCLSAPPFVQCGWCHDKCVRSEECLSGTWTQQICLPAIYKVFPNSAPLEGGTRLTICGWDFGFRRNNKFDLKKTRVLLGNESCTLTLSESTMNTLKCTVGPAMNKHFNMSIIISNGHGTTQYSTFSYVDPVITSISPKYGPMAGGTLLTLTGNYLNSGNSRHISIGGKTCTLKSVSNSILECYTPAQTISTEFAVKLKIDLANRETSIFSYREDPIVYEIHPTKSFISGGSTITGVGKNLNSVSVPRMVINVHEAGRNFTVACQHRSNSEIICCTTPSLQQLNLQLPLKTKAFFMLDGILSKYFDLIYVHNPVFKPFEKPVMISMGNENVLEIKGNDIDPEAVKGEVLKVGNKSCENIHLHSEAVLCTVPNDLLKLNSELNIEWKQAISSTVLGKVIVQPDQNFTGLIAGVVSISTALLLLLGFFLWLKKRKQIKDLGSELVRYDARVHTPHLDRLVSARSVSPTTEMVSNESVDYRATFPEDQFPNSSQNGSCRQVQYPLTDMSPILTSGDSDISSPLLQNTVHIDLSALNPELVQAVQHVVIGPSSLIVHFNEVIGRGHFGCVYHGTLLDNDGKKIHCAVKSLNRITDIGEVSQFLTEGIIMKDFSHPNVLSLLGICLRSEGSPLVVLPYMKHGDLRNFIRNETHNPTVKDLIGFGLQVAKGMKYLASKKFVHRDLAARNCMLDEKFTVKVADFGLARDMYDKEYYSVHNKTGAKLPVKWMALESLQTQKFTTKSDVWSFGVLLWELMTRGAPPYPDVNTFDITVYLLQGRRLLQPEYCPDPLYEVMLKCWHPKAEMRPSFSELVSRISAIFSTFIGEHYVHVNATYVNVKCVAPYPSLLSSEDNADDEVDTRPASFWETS

The cases that follow already have their IC50 on record.
> print(dat)
                                   compound   endpoint.value
1   c1csc(-c2ncnc(Nc3ccc(N4CCOCC4)cc3)n2)c1  10.3 to 13.3 µM
2  COc1cc(C)c(Nc2ncnc(Nc3cc(-c4ccccc4)n[nH]3)n2)cc1OC       < 0.991 µM
3  COC(=O)Cc1cccc(Nc2ncnc(-n3c(N)nc4ccccc43)n2)c1  6.39 to 9.32 µM
4  COc1cc(Nc2ncnc(-n3c(NCc4ccc(OC(F)(F)F)cc4)nc4ccccc43)n2)cc(OC)c1OC  6.17 to 7.93 µM
5  Nc1nc2ccccc2n1-c1ncnc(Nc2ccc(N3CCOCC3)cc2)n1  6.18 to 9.01 µM

Request the reported IC50 associated with `Cc1ccc2c(c1)CCCN2c1ncnc(NCCCn2ccnc2)n1`
> 12.9 µM

# iterate: CCN(CC)C(=O)C1CCCN(c2ncnc(Nc3cc(OC)c(OC)c(OC)c3)n2)C1 (stereo not drawn)
> 10.1 µM

Next compound up: COc1ccc(Nc2ncnc(NCC(O)c3ccccc3)n2)cc1OC (stereo not drawn)
> 12.2 µM

Another compound to look at: Cc1ccc2c(c1)CCCN2c1ncnc(NCC2CCCO2)n1 (stereo not drawn)
> 13.8 µM

---

# pIC50 values compiled below
molecular target: AKT (Homo sapiens); construct: Kinases are expressed as either kinase domains or full length constructs; made in house; assay: Kinase inhibition assay (33P transfer), AKT; assay type: biochemical; conditions: Table 2, kinase inhibition class; read-out: AKT3-1
pIC50: −log10 of the molar value.

Which pIC50 reading was recorded for the molecule `COc1cccc(Nc2ncnc(Nc3cc(-c4ccccc4)n[nH]3)n2)c1` ?
5.18 to 5.95

Next: `O=C(O)Cc1ccc(Nc2ncnc(Nc3cc(-c4ccccc4)n[nH]3)n2)cc1`
4.93 to 5.04

---

Catalogue of pIC50 readings, one per entry.
target: Lck (Homo sapiens); construct: Kinases are expressed as either kinase domains or full length constructs; made in house; test: Kinase inhibition assay (33P transfer), Lck; type: biochemical; settings: Table 3, class symbols; read-out: Lck-1
pIC50: −log10 of the molar value.

Reference set, count: 10
> print(dat)
                                    compound  endpoint.value
 1  CCN(CC)CCN(C)c1ncnc(Nc2ccc(OC)c(OC)c2)n1          < 4.90
 2  COc1cccc(CCNc2ncnc(Nc3ccc4c(cnn4Cc4ccccc4)c3)n2)c1OC          < 5.03
 3  COc1ccc(CNc2ncnc(Nc3cc(-c4ccco4)[nH]n3)n2)cc1OC          < 4.94
 4  COc1ccc(N(C)c2ncnc(Nc3ccc(OC)c(OC)c3)n2)cc1    5.18 to 5.96
 5  COc1cc(Nc2ncnc(Nc3cc(-c4ccc(C(N)=O)cc4)n[nH]3)n2)cc(OC)c1OC          > 6.06
 6  CCN(c1ncnc(Nc2cc(OC)c(OC)c(OC)c2)n1)c1cccc2ccccc12    5.25 to 6.03
 7  COC(=O)c1ccc(-c2cc(Nc3ncnc(NCCNC(C)=O)n3)[nH]n2)cc1          < 4.94
 8  COC(=O)c1ccc(-c2cc(Nc3ncnc(NCc4ccccc4F)n3)[nH]n2)cc1          < 4.97
 9  CN(c1ccc2c(cnn2Cc2ccccc2)c1)c1ncnc(Nc2cccc(Br)c2)n1          < 5.03
10  COc1ccc(Nc2ncnc(Nc3cc(Cl)cc(Cl)c3)n2)cc1OC          < 4.94

Quick one: pIC50 of `COC(=O)c1ccc(-c2cc(Nc3ncnc(Nc4ccc(N5CCOCC5)cc4)n3)[nH]n2)cc1` ?
< 5.02

How about this compound: `COc1ccc(Nc2ncnc(Nc3ccc(F)c(F)c3)n2)cc1OC`
5.18 to 5.95

Then this compound: `CNC(=O)c1cccc(Nc2ncnc(Nc3cc(-c4ccco4)[nH]n3)n2)c1`
5.20 to 5.97

Also `Fc1ccc(Nc2ncnc(Nc3ccc4c(cnn4Cc4ccccc4)c3)n2)cc1F` ?
< 4.98

`COc1ccc(Nc2ncnc(N(C)c3ccc4c(cnn4Cc4ccccc4)c3)n2)cc1OC` ?
5.29 to 6.07

Likewise for `CN(c1cccc(Br)c1)c1ncnc(Nc2cccc(Cc3nnn[nH]3)c2)n1` ?
5.26 to 6.04

Subsequent entry: `O=C(O)CNC(=O)c1ccc(Nc2ncnc(Nc3cc(-c4ccco4)[nH]n3)n2)cc1`
< 4.97

What about this compound? `COc1ccc(Nc2ncnc(Nc3ccc4c(c3)C(=O)OC4)n2)cc1OC`
< 4.93

Another compound: `CCOc1ccc(Nc2ncnc(N(C)c3cccc(Cl)c3)n2)cc1OCC`
5.22 to 6.00

Moving on to `COC(=O)c1ccc(-c2cc(Nc3ncnc(Nc4cccc(CCC(=O)O)c4)n3)[nH]n2)cc1`
> 6.06

Follow-up entry: `COc1cc(Nc2ncnc(-c3cccnc3Nc3ccc(Oc4ccccc4)cc3)n2)cc(OC)c1OC`
< 5.06

Also check `COC(=O)c1ccc(-c2cc(Nc3ncnc(NCCN4CCNC4=O)n3)[nH]n2)cc1`
< 4.97

Same lookup for `O=C(O)Cc1cccc(Nc2ncnc(-c3cccnc3NCc3ccc(F)cc3)n2)c1` , please.
4.98 to 5.09

What about this compound? COc1cc(Nc2ncnc(-c3cccnc3NC(C)c3cccc4ccccc34)n2)cc(OC)c1OC (stereo not drawn)
5.33 to 6.10

Check `O=C(O)Cc1cccc(Nc2ncnc(-c3cccnc3Nc3ccccc3)n2)c1` too.
< 4.95

Next record, please: `c1ccc(CNc2ncccc2-c2ncnc(Nc3cccc(Cn4ccnn4)c3)n2)cc1`
5.09 to 5.26

What about `COc1cc(Nc2ncnc(N(C)c3cccc(Cl)c3)n2)cc2ccccc12` ?
< 4.94

Ok, now `CN(c1cccc(Cl)c1)c1ncnc(Nc2ccc(OC(F)(F)F)cc2)n1`
< 4.94

Could you do the same for `COc1cccc(Nc2ncnc(Nc3ccc4c(cnn4Cc4ccccc4)c3)n2)c1` , please?
5.25 to 6.02

Now give it for `COc1ccc(Nc2ncnc(N(C)c3ccc(Cl)cc3)n2)cc1OC` too.
5.19 to 5.97
